These data points were gathered from ChEMBL document CHEMBL1127801.

system: Mus musculus; experiment: In vivo antagonist activity against PAF-Induced paw edema in the mouse; type: functional
Task for the reader: assign each of the following compounds its reported ED50.
Please give the number followed by its unit.

Would you mind giving ED50 for every compound in the list below?
1. O=C(c1cn(C(=O)N2CCOCC2)c2ccccc12)[C@@H]1CSC(c2cccnc2)N1 (stereo partly drawn)
2. O=C(c1c[nH]c2cc(-c3ccccc3)ccc12)[C@@H]1CSC(c2cccnc2)N1 (stereo partly drawn)
3. O=C(O)C(F)(F)F.O=C(c1c[nH]c2c(OCc3ccccc3)cccc12)[C@@H]1CSC(c2cccnc2)N1 (stereo partly drawn)
4. O=C(c1c[nH]c2cc(OCc3ccccc3)ccc12)[C@@H]1CSC(c2cccnc2)N1 (stereo partly drawn)

2.63 mg/kg
5.39 mg/kg
6.98 mg/kg
1.47 mg/kg

Would you mind giving ED50 for every compound in the list below?
1. CCN(CC)C(=O)n1cc(C(=O)[C@@H]2CSC(c3cccnc3)N2)c2ccccc21 (stereo partly drawn)
2. Cc1nnc2n1C1=C(C(c3ccccc3Cl)=NC2C)C2CCN(C(=O)C3CC3)CC2S1 (stereo not drawn)
3. Cc1nnc2n1-c1sc3c(c1C(c1ccccc1Cl)=NC2)CC(C(=O)N1CCOCC1)C3 (stereo not drawn)
4. CC(C)(C)C(=O)n1cc(C(=O)[C@@H]2CSC(c3cccnc3)N2)c2ccccc21 (stereo partly drawn)
5. CN(C)C(=O)n1cc(C(=O)[C@@H]2CSC(c3cccnc3)N2)c2ccc(-c3ccccc3)cc21 (stereo partly drawn)

1: 0.52 mg/kg; 2: 1.44 mg/kg; 3: 0.459 mg/kg; 4: 15.8 mg/kg; 5: 0.808 mg/kg
